Reference source: patent US20080181886A1

# F (APRIL) values compiled below
- assayed_target: T1, Murine APRIL (mouse, UniProt Q9D777 105-241, limits assumed)
- T1 sequence (looked up): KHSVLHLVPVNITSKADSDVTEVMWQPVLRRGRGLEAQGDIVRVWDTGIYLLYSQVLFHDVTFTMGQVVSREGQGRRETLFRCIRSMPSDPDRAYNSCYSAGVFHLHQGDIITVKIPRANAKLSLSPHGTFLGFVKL
- assay_summary: shotgun scan, phage display

Illustrative cases are given below, each with its answer.
SLSCRKEQGKFYDHLLGDCISCASICGQHPKQCAYFCENKLR (receptor, phage library variant, format as m9) [TACI_d2 R84G]
1.8
SLSCRKEQGKFYDHPLRDCISCASICGQHPKQCAYFCENKLR (receptor, phage library variant, format as m9) [TACI_d2 L82P]
> 49

Now turn to the next binder.
The binder identified as SLSCRKEQGKFYDHVLRDCISCASICGQHPKQCAYFCENKLR (receptor, phage library variant, format as m9) [TACI_d2 L82V] registered its F (APRIL) at > 20
